reported.property: melting point

Known melting point results, listed for orientation:
## Input Request the reported melting point associated with `CC(C)c1ccc(OC(F)F)c(CN[C@H]2CCCN[C@H]2c2ccccc2)c1.Cl`
## Output 245 to 247 °C (dec.)

## Input Request the reported melting point associated with `CC(=O)Nc1ccc(OCC(F)(F)F)c(CN[C@H]2CCCN[C@H]2c2ccccc2)c1.Cl`
## Output > 270 °C

## Input Request the reported melting point associated with `CC(C)(C)c1ccc(OC(F)F)c(CN[C@H]2CCCN[C@H]2c2ccccc2)c1.Cl`
## Output 263 to 264 °C (dec.)

## Input Request the reported melting point associated with `CCOc1ccc(OC(F)(F)F)cc1CN[C@H]1CCCN[C@H]1c1ccccc1.Cl`
## Output > 275 °C (dec.)

## Input Request the reported melting point associated with `Cc1ccc(OC(F)F)c(CN[C@H]2CCCN[C@H]2c2ccccc2)c1.Cl`
## Output > 275 °C

Lab note: each compound below needs its melting point filled in.
1. CC(C)c1ccc(OCC(F)(F)F)c(CN[C@H]2CCCN[C@H]2c2ccccc2)c1.Cl
2. Cl.FC(F)(F)Oc1ccccc1CN[C@H]1CCCN[C@H]1c1ccccc1
3. CC(C)(C)c1ccc(OC(F)(F)F)c(CN[C@H]2CCCN[C@H]2c2ccccc2)c1.Cl
4. CN(C)c1ccc(OCC(F)(F)F)c(CN[C@H]2CCCN[C@H]2c2ccccc2)c1.Cl
5. CC(C)Oc1ccc(OC(F)(F)F)cc1CN[C@H]1CCCN[C@H]1c1ccccc1.Cl

## Output
> 280 °C
231 to 233 °C
262 to 264 °C
250 to 252 °C
245 to 246 °C (dec.)

## Input Request the reported melting point associated with `Cl.FC(F)Oc1ccc(OC(F)F)c(CN[C@H]2CCCN[C@H]2c2ccccc2)c1`
## Output 238 to 239 °C

Every entry's value here was drawn from patent US20080132538A1.
